Biological target: Dd myosin-2 (DdMyo2) (Dictyostelium discoideum, UniProt P08799)
Construct: gene mhcA; motor domain
Experiment: biochemical
Set-up: binding affinity of compound to purified myosin (technique not given in the excerpts)
Conditions: read-out: KD
Reported Property: Kd (µM)
Give just the number in µM; leave the unit off.

Short answer on Dd myosin-2 (DdMyo2) (Dictyostelium discoideum, UniProt P08799) for OCc1cc(Br)cc2c1[nH]c1ccc(Br)cc12 [compound 12, 3,6-dibromo-1-(hydroxymethyl)carbazole] , Kd: 14.9

====

Target: Dd myosin-2 (DdMyo2) (Dictyostelium discoideum)
Construct: gene mhcA; motor domain
Sequence (P08799 2-762): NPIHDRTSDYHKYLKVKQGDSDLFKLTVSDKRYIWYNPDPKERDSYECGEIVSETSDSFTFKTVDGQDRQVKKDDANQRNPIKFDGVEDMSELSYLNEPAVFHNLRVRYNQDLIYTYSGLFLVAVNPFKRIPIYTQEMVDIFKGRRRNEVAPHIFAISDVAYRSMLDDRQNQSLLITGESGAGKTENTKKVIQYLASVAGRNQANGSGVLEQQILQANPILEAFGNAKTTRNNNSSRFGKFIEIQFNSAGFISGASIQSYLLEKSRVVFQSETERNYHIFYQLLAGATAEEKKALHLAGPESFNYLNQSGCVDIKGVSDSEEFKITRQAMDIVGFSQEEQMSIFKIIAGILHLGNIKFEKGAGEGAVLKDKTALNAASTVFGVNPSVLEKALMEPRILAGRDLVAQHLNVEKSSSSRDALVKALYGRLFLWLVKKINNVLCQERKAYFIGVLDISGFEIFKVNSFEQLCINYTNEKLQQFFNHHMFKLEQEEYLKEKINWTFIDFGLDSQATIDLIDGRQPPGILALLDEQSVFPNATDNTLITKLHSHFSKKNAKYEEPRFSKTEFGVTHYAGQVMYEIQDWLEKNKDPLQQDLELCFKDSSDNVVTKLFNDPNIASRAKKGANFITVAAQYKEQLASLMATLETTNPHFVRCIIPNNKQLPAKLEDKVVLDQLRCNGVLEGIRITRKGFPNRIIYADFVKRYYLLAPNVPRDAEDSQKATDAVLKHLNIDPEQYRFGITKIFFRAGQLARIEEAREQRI
Assay: biochemical
Set-up: binding affinity of compound to purified myosin (technique not given in the excerpts)
Reported Property: Kd (µM)
Field: numeric (µM). Do not append units.

Summary for this compound, Cc1ccc2[nH]c3c(O)cc(Br)c(Br)c3c2c1 : Kd is 7.3
